Quick list: IC50, inhibition of HGF-stimulated c-Met phosphorylation (Tyr1349) in NCI-H292 per entry.
Biological target: c-Met (hepatocyte growth factor receptor) on cells (human, UniProt P08581 25-1390)
Sequence (P08581 other isoform, or with tags, fused parts or gaps limits assumed): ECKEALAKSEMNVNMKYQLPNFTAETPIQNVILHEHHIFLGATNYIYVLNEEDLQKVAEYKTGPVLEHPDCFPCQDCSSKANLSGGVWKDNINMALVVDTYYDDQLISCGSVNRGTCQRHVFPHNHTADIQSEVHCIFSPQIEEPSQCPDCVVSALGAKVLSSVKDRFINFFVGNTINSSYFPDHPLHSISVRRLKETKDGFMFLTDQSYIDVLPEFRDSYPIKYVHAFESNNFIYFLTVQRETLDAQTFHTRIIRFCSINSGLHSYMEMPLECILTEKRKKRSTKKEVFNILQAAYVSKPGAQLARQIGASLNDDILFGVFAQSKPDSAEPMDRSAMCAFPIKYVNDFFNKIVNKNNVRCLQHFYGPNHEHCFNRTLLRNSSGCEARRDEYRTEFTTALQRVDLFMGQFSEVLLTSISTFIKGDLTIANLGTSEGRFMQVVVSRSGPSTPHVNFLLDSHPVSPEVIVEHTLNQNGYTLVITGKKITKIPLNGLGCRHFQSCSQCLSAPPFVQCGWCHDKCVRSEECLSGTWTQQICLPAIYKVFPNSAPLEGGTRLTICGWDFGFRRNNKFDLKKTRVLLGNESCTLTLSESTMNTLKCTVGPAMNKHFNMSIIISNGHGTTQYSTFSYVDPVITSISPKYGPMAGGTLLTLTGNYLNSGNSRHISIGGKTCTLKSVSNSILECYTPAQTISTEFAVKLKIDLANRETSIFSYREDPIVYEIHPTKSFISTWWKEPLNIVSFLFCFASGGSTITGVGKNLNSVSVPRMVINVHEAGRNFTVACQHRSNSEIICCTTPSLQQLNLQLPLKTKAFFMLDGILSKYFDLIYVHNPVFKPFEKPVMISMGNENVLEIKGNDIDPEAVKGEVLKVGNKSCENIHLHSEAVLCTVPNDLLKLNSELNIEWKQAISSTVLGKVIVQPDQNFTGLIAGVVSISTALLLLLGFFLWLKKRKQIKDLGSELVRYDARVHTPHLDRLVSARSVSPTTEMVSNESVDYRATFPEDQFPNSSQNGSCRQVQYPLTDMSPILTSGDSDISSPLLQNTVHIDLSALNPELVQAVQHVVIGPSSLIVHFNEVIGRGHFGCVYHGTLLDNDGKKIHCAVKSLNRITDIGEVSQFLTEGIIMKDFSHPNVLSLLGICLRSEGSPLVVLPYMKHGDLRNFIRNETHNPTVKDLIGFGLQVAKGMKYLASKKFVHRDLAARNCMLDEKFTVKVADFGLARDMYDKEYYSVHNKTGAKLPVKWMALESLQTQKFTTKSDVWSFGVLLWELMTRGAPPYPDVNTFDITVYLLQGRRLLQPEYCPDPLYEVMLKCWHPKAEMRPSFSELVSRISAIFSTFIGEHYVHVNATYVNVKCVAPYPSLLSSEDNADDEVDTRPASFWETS
Test: cell-based or functional assay
Write the value in nM as a bare number.

Ask | Could you share which IC50, inhibition of HGF-stimulated c-Met phosphorylation (Tyr1349) in NCI-H292 value was measured for ECB147v3-PEG24 (designed binder, PEG24-maleimide on the engineered cysteines) LPAPKNLVVSEVTEDSARLSWDDPWAFYESFLIQYQESEKVGEAIVLTVPGSERSYDLTGLCPGTEYTVSIYGVHNVYKDTNMRGLPLSAIFTTAPCPAPAPAPLPAPKNLVVSRVTEDSARLSWTAPDAAFDSFWIRYFEFLGSGEAIVLTVPGSERSYDLTGLCPGTEYVVNIMSVKGGSISPPLSAIFTTAPCPAPAPAPLAEAKVLANRELDKYGVSDYYKNLINNAKTVEGVKALLDEILAALP ?
Reply | 0.5

Ask | Could you share which IC50, inhibition of HGF-stimulated c-Met phosphorylation (Tyr1349) in NCI-H292 value was measured for ECB147v5-PEG24 (designed binder, PEG24-maleimide on the engineered cysteines) LPAPKNLVVSEVTEDSARLSWDDPWAFYESFLIQYQESEKVGEAIVLTVPGSERSYDLTGLCPGTEYTVSIYGVHNVYKDTNMRGLPLSAIFTTAPAPAPAPAPLPAPKNLVVSRVTEDSARLSWTAPDAAFDSFWIRYFEFLGSGEAIVLTVPGSERSYDLTGLCPGTEYVVNIMSVKGGSISPPLSAIFTTAPAPAPAPAPLAEAKVLANRELDKYGVSDYYKNLINNAKTVEGVKALLDEILAALP ?
Reply | 0.4

Ask | Could you share which IC50, inhibition of HGF-stimulated c-Met phosphorylation (Tyr1349) in NCI-H292 value was measured for ECB38 (designed binder) MLPAPKNLVVSEVTEDSARLSWDDPWAFYESFLIQYQESEKVGEAIVLTVPGSERSYDLTGLKPGTEYTVSIYGVHNVYKDTNMRGLPLSAIFTTAPAPAPAPAPLPAPKNLVVSRVTEDSARLSWTAPDAAFDSFWIRYFEFLGSGEAIVLTVPGSERSYDLTGLKPGTEYVVNIMGVKGGKISPPLSAIFTTAPAPAPAPAPLAEAKVLANRELDKYGVSDYYKNLINNAKTVEGVKALLDEILAALP ?
Reply | 1.3

Ask | Could you share which IC50, inhibition of HGF-stimulated c-Met phosphorylation (Tyr1349) in NCI-H292 value was measured for ECB147v7-PEG24 (designed binder, PEG24-maleimide on the engineered cysteines) LPAPKNLVVSEVTEDSARLSWDDPWAFYESFLIQYQESEKVGEAIVLTVPGSERSYDLTGLKPGTEYTVSIYGVHNVYKDTNMRGLPLSAIFTTAPCPAPAPAPLPAPKNLVVSRVTEDSARLSWTAPDAAFDSFWIRYFEFLGSGEAIVLTVPGSERSYDLTGLKPGTEYVVNIMSVKGGSISPPLSAIFTTAPCPAPAPAPLAEAKVLANRELDKYGVSDYYKNLINNAKTVEGVKALLDEILAALP ?
Reply | 0.5

Ask | Could you share which IC50, inhibition of HGF-stimulated c-Met phosphorylation (Tyr1349) in NCI-H292 value was measured for ECB147v6-PEG24 (designed binder, PEG24-maleimide on the engineered cysteine) LPAPKNLVVSEVTEDSARLSWDDPWAFYESFLIQYQESEKVGEAIVLTVPGSERSYDLTGLCPGTEYTVSIYGVHNVYKDTNMRGLPLSAIFTTAPAPAPAPAPLPAPKNLVVSRVTEDSARLSWTAPDAAFDSFWIRYFEFLGSGEAIVLTVPGSERSYDLTGLKPGTEYVVNIMSVKGGSISPPLSAIFTTAPAPAPAPAPLAEAKVLANRELDKYGVSDYYKNLINNAKTVEGVKALLDEILAALP ?
Reply | 0.4
